Below: a set of entries, each annotated with reported pIC50.
biological target: ErbB2 with Exon 20 YVMA insertion (HER2-YVMA) (Homo sapiens (Human), UniProt P04626, INS775YVMA); experiment: Cellular Phosphorylation Assay, Assay 4 (constitutive ErbB2 phosphorylation, NIH 3T3 cells); format: cell-based; settings: cellular ErbB2 YVMA phosphorylation
Sequence (P04626 other isoform, or with tags, fused parts or gaps ins YVMA behind 775): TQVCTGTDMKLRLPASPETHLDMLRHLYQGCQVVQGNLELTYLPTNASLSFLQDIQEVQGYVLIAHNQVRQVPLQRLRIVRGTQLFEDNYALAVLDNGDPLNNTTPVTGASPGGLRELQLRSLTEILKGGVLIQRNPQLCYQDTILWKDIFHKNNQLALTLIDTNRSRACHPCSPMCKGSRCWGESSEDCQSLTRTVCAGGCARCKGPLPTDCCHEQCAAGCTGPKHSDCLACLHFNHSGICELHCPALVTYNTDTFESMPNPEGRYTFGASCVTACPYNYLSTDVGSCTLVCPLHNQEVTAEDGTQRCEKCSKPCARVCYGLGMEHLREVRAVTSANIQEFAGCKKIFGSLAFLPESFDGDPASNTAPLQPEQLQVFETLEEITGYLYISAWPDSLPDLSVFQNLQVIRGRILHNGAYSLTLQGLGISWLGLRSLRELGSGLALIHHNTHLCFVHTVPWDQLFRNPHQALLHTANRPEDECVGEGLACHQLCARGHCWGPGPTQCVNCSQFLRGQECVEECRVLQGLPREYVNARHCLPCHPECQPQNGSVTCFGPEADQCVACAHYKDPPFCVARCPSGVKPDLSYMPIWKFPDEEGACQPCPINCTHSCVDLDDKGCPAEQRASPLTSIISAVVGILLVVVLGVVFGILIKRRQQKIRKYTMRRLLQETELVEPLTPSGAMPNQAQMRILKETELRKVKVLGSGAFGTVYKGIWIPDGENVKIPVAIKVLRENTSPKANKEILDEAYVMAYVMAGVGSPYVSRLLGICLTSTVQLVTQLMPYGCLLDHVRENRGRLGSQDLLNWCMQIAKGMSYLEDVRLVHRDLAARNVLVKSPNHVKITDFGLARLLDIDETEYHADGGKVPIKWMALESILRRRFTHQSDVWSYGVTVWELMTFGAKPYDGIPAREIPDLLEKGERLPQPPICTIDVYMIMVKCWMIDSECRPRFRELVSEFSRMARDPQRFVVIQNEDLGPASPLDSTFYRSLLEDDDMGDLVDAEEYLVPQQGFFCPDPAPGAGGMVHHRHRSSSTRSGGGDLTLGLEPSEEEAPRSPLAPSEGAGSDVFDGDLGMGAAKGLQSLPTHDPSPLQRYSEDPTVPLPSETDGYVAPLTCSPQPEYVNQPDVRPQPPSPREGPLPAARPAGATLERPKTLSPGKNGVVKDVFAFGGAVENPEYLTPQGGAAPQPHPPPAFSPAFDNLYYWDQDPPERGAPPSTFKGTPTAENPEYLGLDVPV
Give only the number. pIC50 is defined as minus log10 of concentration in molar units.

Previously resolved entries follow.
# COMPOUND, pIC50
data = [
    ("C=CC(=O)N1CC2CCC(C1)N2c1ccc2ncnc(Nc3cc(Cl)c(Oc4ccn5ncnc5c4)cc3F)c2n1", 7.75),
    ("C=CC(=O)N1C[C@H]2CC[C@@H]1[C@@H](c1ccc3ncnc(Nc4cc(C)c(Oc5cnc6c(c5)ncn6C)cc4F)c3n1)C2", 7.30),
]

For the next question, use this compound.
Q: Can you share its pIC50? I mean this compound: C=CC(=O)N1CCCC(c2ccc3ncnc(Nc4ccc(Oc5cnc6c(c5)ncn6C)c(C)c4)c3n2)CC1 (stereo not drawn)
Result: 7.87

###

target: ErbB2 with Exon 20 YVMA insertion (HER2-YVMA) (Homo sapiens (Human), UniProt P04626, INS775YVMA); experiment: Cellular Phosphorylation Assay, Assay 4 (constitutive ErbB2 phosphorylation, NIH 3T3 cells); assay type: cell-based; details: ErbB2 YVMA phosphorylation
Class key for IC50 values: zone 1: < 20 nM; zone 2: ≥ 20 nM and < 40 nM; zone 3: ≥ 40 nM

# COMPOUND, GROUP_LABEL
rows = [
    ("C=CC(=O)N1CCC[C@@H](c2ccc3ncnc(Nc4ccc(Oc5ccc6c(c5)ncn6C)c(C)c4)c3n2)C1 (racemic)", "zone 1"),
    ("C=CC(=O)N1CCCN(c2ccc3ncnc(Nc4ccc(Oc5cnc6c(c5)ncn6C)c(Cl)c4)c3n2)CC1", "zone 2"),
]

Q: Which IC50 band matches "C=CC(=O)N1C[C@H]2C[C@@H]1CN2c1ccc2ncnc(Nc3ccc(Oc4ccn5ncnc5c4)c(C)c3F)c2n1" ?
Result: zone 2

Q: Which IC50 band matches "C=CC(=O)N1CCN(c2ccc3ncnc(Nc4ccc(Oc5ccc6c(c5)ncn6C)c(C)c4F)c3n2)CC1(C)C" ?
Result: zone 1

Q: Which IC50 band matches "C=CC(=O)N1CCC(c2nc3c(Nc4ccc(Oc5ccc6c(c5)ncn6C)c(C)c4)ncnc3cc2OC)CC1" ?
Result: zone 1

Q: Which IC50 band matches "C=CC(=O)N1C2CC1CN(c1ccc3ncnc(Nc4cc(C)c(Oc5ccc6c(c5)ncn6C)cc4F)c3n1)C2" ?
Result: zone 1

###

target: ErbB2 WT (Homo sapiens (Human), UniProt P04626); test: ErbB Enzyme Assay (HTRF KinEASE-TK), Assay 2; type: biochemical; conditions: ErbB2 WT enzyme assay
Sequence (P04626 23-1255): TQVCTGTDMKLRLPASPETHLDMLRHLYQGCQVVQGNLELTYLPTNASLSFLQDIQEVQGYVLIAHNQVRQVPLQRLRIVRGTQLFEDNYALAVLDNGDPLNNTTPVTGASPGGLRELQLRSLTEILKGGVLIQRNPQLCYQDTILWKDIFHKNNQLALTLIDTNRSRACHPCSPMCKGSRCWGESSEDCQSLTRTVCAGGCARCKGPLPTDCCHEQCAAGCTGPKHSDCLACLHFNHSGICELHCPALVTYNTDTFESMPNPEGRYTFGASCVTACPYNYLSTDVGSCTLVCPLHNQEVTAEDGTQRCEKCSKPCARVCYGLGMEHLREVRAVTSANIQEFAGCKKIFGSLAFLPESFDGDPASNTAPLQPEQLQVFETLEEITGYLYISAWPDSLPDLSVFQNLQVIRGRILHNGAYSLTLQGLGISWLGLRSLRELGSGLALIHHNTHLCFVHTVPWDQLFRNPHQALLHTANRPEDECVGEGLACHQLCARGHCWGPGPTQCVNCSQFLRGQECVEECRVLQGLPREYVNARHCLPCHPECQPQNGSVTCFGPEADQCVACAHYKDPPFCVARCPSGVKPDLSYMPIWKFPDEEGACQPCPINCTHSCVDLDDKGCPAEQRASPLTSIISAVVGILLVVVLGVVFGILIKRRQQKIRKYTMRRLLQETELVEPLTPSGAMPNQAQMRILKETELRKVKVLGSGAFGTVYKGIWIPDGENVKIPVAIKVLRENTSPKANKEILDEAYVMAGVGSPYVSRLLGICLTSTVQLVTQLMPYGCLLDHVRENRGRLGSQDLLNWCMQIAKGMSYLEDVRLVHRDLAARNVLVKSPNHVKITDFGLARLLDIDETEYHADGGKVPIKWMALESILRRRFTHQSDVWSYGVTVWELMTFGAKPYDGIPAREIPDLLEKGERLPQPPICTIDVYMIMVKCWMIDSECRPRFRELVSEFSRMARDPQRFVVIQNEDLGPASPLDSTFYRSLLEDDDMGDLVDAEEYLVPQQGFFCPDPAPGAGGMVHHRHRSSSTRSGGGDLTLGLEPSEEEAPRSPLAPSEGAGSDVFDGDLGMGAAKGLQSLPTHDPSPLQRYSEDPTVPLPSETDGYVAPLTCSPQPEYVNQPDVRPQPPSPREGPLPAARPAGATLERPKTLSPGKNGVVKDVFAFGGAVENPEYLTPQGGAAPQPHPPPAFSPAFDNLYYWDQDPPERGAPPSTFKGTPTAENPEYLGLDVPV
PARAMETER: IC50 (nM)
Give the value, in units of nM, as a plain number.

Previously resolved entries follow.
# STRUCTURE_STRING, TARGET_OF_ASSAY, IC50 / nM
rows = [
    ("C=CC(=O)N1CC2CC(C1)N2c1ccc2ncnc(Nc3ccc(Oc4ccc5c(c4)ncn5C)c(C)c3F)c2n1", "ErbB2 WT (Homo sapiens (Human), UniProt P04626)", 164),
    ("C=CC(=O)N1CCN(c2ccc3ncnc(Nc4ccc(Oc5ccn6ncnc6c5)c(C)c4F)c3n2)C[C@H]1COC", "ErbB2 WT (Homo sapiens (Human), UniProt P04626)", 10),
]

Q: Can you share its IC50? I mean this compound: "C=CC(=O)N1C[C@@H]2C[C@H](c3ccc4ncnc(Nc5cc(C)c(Oc6ccn7ncnc7c6)cc5F)c4n3)C[C@H]1C2"
Result: 68.1

Q: Can you share its IC50? I mean this compound: "C=CC(=O)N1[C@H](C)CN(c2ccc3ncnc(Nc4ccc(Oc5cnc6c(c5)ncn6C)c(C)c4F)c3n2)C[C@@H]1C"
Result: 464

Q: Can you share its IC50? I mean this compound: "C=CC(=O)N1CCN(c2ccc3ncnc(Nc4cc(C)c(Oc5ccn6ncnc6c5)cc4F)c3n2)C[C@@H]1C1CC1"
Result: 24.9

Q: Can you share its IC50? I mean this compound: "C=CC(=O)N1C[C@H]2CC[C@@H]1[C@@H](c1ccc3ncnc(Nc4cc(C)c(Oc5cnc6c(c5)ncn6C)cc4F)c3n1)C2"
Result: 212

###

Molecular target: ErbB2 with Exon 20 YVMA insertion (HER2-YVMA) (Homo sapiens (Human), UniProt P04626, INS775YVMA)
Assay: Cellular Phosphorylation Assay, Assay 4 (constitutive ErbB2 phosphorylation, NIH 3T3 cells)
Type: cell-based
Conditions: cellular ErbB2 YVMA phosphorylation
Protocol: NIH 3T3 cells were engineered to express ErbB2 with Exon 20 YVMA insertion (HER2-YVMA (SEQ ID NO: 2); Assay 4) or EGFR wild type (EGFR WT; Assay 5) with constructs obtained from GenScript and grown in DMEM supplemented with 10% fetal bovine serum and 15 μg/ml blasticidin. […] Serially diluted compounds were added to the plates for 1 hour at 37° C./5% CO2. EGFR WT cells were stimulated with 100 ng/ml rEGF for an additional 10 minutes at 37° C./5% CO2. […]
Below: a set of entries, each annotated with reported pIC50.
Give only the number. pIC50 is defined as minus log10 of concentration in molar units.

Previously resolved entries follow.
# COMPOUND, READOUT_VALUE
rows = [
    ("C=CC(=O)N1CCN(c2ccc3ncnc(Nc4ccc(Oc5ccn6ncnc6c5)c(C)c4F)c3n2)C[C@@H]1C1CC1", 7.47),
    ("C=CC(=O)N1C[C@@H]2CC[C@H]1CN2c1ccc2ncnc(Nc3ccc(Oc4cnc5c(c4)ncn5C)c(C)c3F)c2n1", 8.03),
    ("C=CC(=O)N1CC2CC(C1)N2c1ccc2ncnc(Nc3ccc(Oc4cnc5c(c4)ncn5C)c(C)c3F)c2n1", 7.80),
    ("C=CC(=O)N1C[C@H]2C[C@@H]1[C@H](c1ccc3ncnc(Nc4cc(C)c(Oc5ccn6ncnc6c5)cc4F)c3n1)C2", 7.08),
    ("C=CC(=O)N1C[C@H]2CC[C@@H]1C[C@H]2c1ccc2ncnc(Nc3ccc(Oc4cnc5c(c4)ncn5C)c(C)c3F)c2n1", 7.15),
]

Q: Can you share its pIC50? I mean this compound: "C=CC(=O)N1CC[C@H]2C[C@@H]1CN2c1ccc2ncnc(Nc3cc(Cl)c(Oc4ccn5ncnc5c4)cc3F)c2n1"
Result: 6.03

Q: Can you share its pIC50? I mean this compound: "C=CC(=O)N1C[C@H]2CC[C@@H]1[C@H](c1ccc3ncnc(Nc4ccc(Oc5cnc6c(c5)ncn6C)c(C)c4F)c3n1)C2"
Result: 7.48

Q: Can you share its pIC50? I mean this compound: "C=CC(=O)N1CCN(c2ccc3ncnc(Nc4ccc(Oc5ccc6c(c5)ncn6C)c(C)c4F)c3n2)C[C@H]1C(C)C"
Result: 7.51

Q: Can you share its pIC50? I mean this compound: "C=CC(=O)N1CCN(c2ccc3ncnc(Nc4cc(Cl)c(Oc5ccn6ncnc6c5)cc4F)c3n2)CC1(C)C"
Result: 7.71

Q: Can you share its pIC50? I mean this compound: "C=CC(=O)N1CCC(c2ccc3ncnc(Nc4ccc(Oc5cnc6c(c5)ncn6C)c(Cl)c4)c3n2)CC1"
Result: 7.50

Q: Can you share its pIC50? I mean this compound: "C=CC(=O)N1[C@@H]2CC[C@H]1[C@H](c1ccc3ncnc(Nc4ccc(Oc5cnc6c(c5)ncn6C)c(C)c4)c3n1)C2"
Result: 7.63

Q: Can you share its pIC50? I mean this compound: "C=CC(=O)N1CC[C@H]2C[C@@H]1CN2c1ccc2ncnc(Nc3ccc(Oc4ccn5ncnc5c4)c(Cl)c3F)c2n1"
Result: 6.34

###

Below: a set of entries, each annotated with reported IC50.
target: EGFR wild type (EGFR WT) (Homo sapiens (Human), UniProt P00533); assay: Cellular Phosphorylation Assay, Assay 5 (EGF-stimulated EGFR phosphorylation, NIH 3T3 cells); type: cell-based; conditions: EGF-stimulated EGFR WT phosphorylation
Sequence (P00533 25-1210): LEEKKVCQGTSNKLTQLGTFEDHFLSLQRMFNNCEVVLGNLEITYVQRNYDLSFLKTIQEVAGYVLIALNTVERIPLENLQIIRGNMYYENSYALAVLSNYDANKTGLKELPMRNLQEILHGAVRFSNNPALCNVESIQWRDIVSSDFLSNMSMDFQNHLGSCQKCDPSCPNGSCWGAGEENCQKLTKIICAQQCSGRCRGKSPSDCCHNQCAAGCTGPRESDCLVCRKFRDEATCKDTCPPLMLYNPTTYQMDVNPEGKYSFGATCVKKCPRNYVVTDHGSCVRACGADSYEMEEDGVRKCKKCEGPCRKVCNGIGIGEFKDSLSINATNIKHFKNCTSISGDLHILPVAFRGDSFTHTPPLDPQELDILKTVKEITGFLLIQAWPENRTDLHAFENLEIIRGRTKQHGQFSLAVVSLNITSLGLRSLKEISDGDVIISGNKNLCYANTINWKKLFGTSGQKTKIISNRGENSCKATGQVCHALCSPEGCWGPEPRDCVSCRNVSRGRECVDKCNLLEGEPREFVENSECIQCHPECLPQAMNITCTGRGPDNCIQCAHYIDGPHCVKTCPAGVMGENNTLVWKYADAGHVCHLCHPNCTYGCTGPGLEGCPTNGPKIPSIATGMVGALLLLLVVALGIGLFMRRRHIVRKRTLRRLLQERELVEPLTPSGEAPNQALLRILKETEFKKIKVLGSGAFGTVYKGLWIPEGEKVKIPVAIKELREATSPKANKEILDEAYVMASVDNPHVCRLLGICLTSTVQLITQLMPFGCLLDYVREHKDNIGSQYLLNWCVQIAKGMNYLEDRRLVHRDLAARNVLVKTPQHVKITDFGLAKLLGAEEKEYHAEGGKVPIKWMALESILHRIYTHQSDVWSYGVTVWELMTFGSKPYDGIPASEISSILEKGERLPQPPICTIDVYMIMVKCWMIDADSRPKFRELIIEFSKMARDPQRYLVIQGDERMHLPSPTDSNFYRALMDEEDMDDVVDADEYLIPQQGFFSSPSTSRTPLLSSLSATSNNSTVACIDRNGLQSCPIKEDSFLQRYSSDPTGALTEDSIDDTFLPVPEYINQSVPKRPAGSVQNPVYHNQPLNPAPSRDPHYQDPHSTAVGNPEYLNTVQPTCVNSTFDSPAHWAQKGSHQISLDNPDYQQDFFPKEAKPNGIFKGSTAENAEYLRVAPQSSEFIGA

Previously resolved entries follow.
# MOLECULE, READOUT_VALUE
records = [
    ("CC#CC(=O)N1CCC[C@@H](c2ccc3ncnc(Nc4ccc(Oc5ccn6ncnc6c5)c(C)c4F)c3n2)CC1 (single isomer, unassigned) [Example 211]", "≥ 5 µM"),
    ("C=CC(=O)N1CCN(c2ccc3ncnc(Nc4ccc(Oc5cnc6c(c5)ncn6C)c(Cl)c4)c3n2)CC1(C)C [Example 249]", "2.05 µM"),
    ("C=CC(=O)N1C[C@H]2CC[C@@H](C1)[C@@H]2c1ccc2ncnc(Nc3cc(C)c(Oc4ccn5ncnc5c4)cc3F)c2n1 [Example 222]", "≥ 5 µM"),
    ("C=CC(=O)N1CC[C@H]2C[C@@H](c3ccc4ncnc(Nc5cc(C)c(Oc6ccc7c(c6)ncn7C)cc5F)c4n3)C[C@H]21 (racemic) [Example 37]", "≥ 5 µM"),
    ("C=CC(=O)N1CCN(c2ccc3ncnc(Nc4ccc(Oc5ccn6ncnc6c5)c(C)c4)c3n2)CC1(C)C [Example 77]", "0.874 µM"),
]

For the next question, use this molecule.
Q: Can you share its IC50? I mean this molecule: C=CC(=O)N1CC[C@H]2CN(c3ccc4ncnc(Nc5ccc(Oc6ccc7c(c6)ncn7C)c(C)c5)c4n3)C[C@H]21 (racemic) [Example 104]
Result: ≥ 5 µM
